TARGET UNDER TEST: PfIspE (Plasmodium falciparum, UniProt Q8I470)
Sequence (Q8I470 entry or part of it): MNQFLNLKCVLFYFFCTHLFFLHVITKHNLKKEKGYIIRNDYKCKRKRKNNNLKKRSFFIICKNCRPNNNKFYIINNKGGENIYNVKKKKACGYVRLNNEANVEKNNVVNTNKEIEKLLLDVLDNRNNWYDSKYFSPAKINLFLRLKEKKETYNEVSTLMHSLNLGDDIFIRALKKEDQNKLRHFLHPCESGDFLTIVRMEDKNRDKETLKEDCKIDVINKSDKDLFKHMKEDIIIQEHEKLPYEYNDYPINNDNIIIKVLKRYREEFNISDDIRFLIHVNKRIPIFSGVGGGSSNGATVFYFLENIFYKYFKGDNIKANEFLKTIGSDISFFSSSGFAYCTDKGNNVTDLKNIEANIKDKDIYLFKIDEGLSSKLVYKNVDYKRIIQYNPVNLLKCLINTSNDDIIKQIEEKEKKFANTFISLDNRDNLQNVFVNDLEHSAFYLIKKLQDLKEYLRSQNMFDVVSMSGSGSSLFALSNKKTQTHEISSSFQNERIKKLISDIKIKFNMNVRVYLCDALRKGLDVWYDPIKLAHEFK
MEASUREMENT PROTOCOL: Biochemical IspE assay (PK/LDH-coupled, NADH oxidation at 340 nm)
PARTICULARS: CDP-ME concentration 100 µM; read-out: IC50 PfIspE
pIC50: −log10 of the molar value.
MEASURED PARAMETER: pIC50

C#CCn1c(C)cc(-c2csc(Nc3ccc(CC(F)(F)F)cc3)n2)c1C: 3.72
CCn1c(C)cc(-c2csc(Nc3ccc4[nH]cnc4c3)n2)c1C: 4.28
CCn1c(C)cc(-c2csc(Nc3cc(Cl)cc(Cl)c3)n2)c1C: 3.84

(I) CCn1c(C)cc(-c2csc(Nc3ccc4[nH]ncc4c3)n2)c1C
(II) CCn1c(C)cc(-c2csc(Nc3ccc(Cl)nc3)n2)c1C
(III) CCn1c(C)cc(-c2csc(Nc3cccc(C(F)(F)F)c3)n2)c1C
Query: Arrange the 3 compounds by rising pIC50, starting with the smallest. Give the labels in the order requested.
Reply: III, II, I
